Assay: DDI study: pharmacokinetics of fedratinib in rats with or without antifungal drugs
Format: in vivo, Sprague-Dawley (SD) rats
Settings: male, Sprague-Dawley, rat, plasma, po, 40 mg/kg, 40 mg/kg fedratinib oral gavage, Group B: 20 mg/kg isavuconazole 30 min before, n = 6, Mean ± SD

{"columns": ["SMILES DATA", "AUC(0-t) (ng·h/mL)"],
 "data": [
  ["Cc1cnc(Nc2ccc(OCCN3CCCC3)cc2)nc1Nc1cccc(S(=O)(=O)NC(C)(C)C)c1", 2590]
]}

---

Assay: DDI study: pharmacokinetics of fedratinib in rats with or without antifungal drugs
Assay type: in vivo, Sprague-Dawley (SD) rats
Settings: male, Sprague-Dawley, rat, plasma, po, 40 mg/kg, 40 mg/kg fedratinib oral gavage, Group D: 20 mg/kg fluconazole 30 min before, n = 6, Mean ± SD, read-out: MRT0→t
MEASURED ENDPOINT: MRT last (h)

{"columns": ["COMPOUND", "RESULT VALUE"],
 "data": [
  ["Cc1cnc(Nc2ccc(OCCN3CCCC3)cc2)nc1Nc1cccc(S(=O)(=O)NC(C)(C)C)c1 [Fedratinib]", 13.4]
]}
